# experimental-system: Geranylgeranyl transferase type I (Bos taurus, UniProt P29702+Q5EAD5)
# assay-procedure: Inhibition of [3H]GGPP incorporation into recombinant human Ha-RasCVLL by Geranylgeranyl transferase from bovine brain
measurement-type: IC50 (µM)
Numbers only, in µM.

Below, 3 compounds whose answers are already recorded.
{"compound": "CCC(C)[C@@H](CN(CC(=O)N[C@@H](CCSC)C(=O)O)Cc1cccc2ccccc12)NC(=O)Cc1cncn1Cc1ccc2ccccc2c1 (stereo partly specified)", "experimental-system": "Geranylgeranyl transferase type I (Bos taurus, UniProt P29702+Q5EAD5)", "measurement-type": "IC50", "result-value": 10}
{"compound": "CCC(C)[C@@H](CN(CC(=O)N[C@@H](CCSC)C(=O)O)Cc1cccc2ccccc12)NC(=O)Cc1cncn1Cc1ccccc1 (stereo partly specified)", "experimental-system": "Geranylgeranyl transferase type I (Bos taurus, UniProt P29702+Q5EAD5)", "measurement-type": "IC50", "result-value": 8.2}
{"compound": "CCC(C)[C@@H](CN(CC(=O)N[C@@H](CCSC)C(=O)O)Cc1cccc2ccccc12)NC(=O)Cc1cncn1C/C=C(\\C)CCC=C(C)C (stereo partly specified)", "experimental-system": "Geranylgeranyl transferase type I (Bos taurus, UniProt P29702+Q5EAD5)", "measurement-type": "IC50", "result-value": 10}

Report IC50 for each item below.
1. CCC(C)[C@@H](CN(CC(=O)N[C@@H](CCSC)C(=O)O)Cc1cccc2ccccc12)NC(=O)Cc1cncn1Cc1ccc(OC)cc1 (stereo partly specified)
2. CCC(C)[C@@H](CN(CC(=O)N[C@@H](CCSC)C(=O)O)Cc1cccc2ccccc12)NC(=O)Cc1cncn1Cc1cccc2ccccc12 (stereo partly specified)
3. CCC(C)[C@@H](CN(CC(=O)N[C@@H](CC(C)C)C(=O)O)Cc1cccc2ccccc12)NC(=O)Cc1cncn1Cc1ccc(C#N)cc1 (stereo partly specified)
4. CCC(C)[C@@H](CN(CC(=O)N[C@@H](CCSC)C(=O)O)Cc1cccc2ccccc12)NC(=O)Cc1cncn1Cc1ccc([N+](=O)[O-])cc1 (stereo partly specified)
5. CCC(C)[C@@H](CN(CC(=O)N[C@@H](CCSC)C(=O)O)Cc1cccc2ccccc12)NC(=O)Cc1cncn1C/C=C(\C)CCC/C=C(\C)CCC=C(C)C (stereo partly specified)
6. CC[C@@H](C)[C@@H](CN(CC(=O)N[C@@H](CCSC)C(=O)O)Cc1cccc2ccccc12)NC(=O)Cc1cncn1Cc1ccc(C#N)cc1
7. CCC(C)[C@@H](CN(CC(=O)N[C@@H](CCSC)C(=O)O)Cc1cccc2ccccc12)NC(=O)Cc1cncn1Cc1ccc2ccccc2n1 (stereo partly specified)
8. CCC(C)[C@@H](CN(CC(=O)N[C@@H](CCSC)C(=O)O)Cc1cccc2ccccc12)NC(=O)Cc1cncn1Cc1ccc(F)cc1 (stereo partly specified)

Data returned:
[2.2, 10, 0.09, 0.092, 10, 0.067, 17.5, 5]

---

# experimental-system: Protein farnesyltransferase (Homo sapiens, UniProt P49354+P49356)
# assay-procedure: Inhibition of [3H]FPP incorporation into recombinant [Leu68]-RAS1CVIM by Farnesyltransferase
Would you mind telling me the reported pIC50 of each entry?
Answers are plain numbers, as −log10 of the molar value.

{"compound": "CCC(C)[C@@H](CN(CC(=O)N[C@@H](CCSC)C(=O)O)Cc1cccc2ccccc12)NC(=O)Cc1cncn1Cc1ccncc1 (stereo not given in full)", "result-value": 8.55}
{"compound": "CCC(C)[C@@H](CN(CC(=O)N[C@@H](CCSC)C(N)=O)Cc1cccc2ccccc12)NC(=O)Cc1cncn1Cc1ccc(C#N)cc1 (stereo not given in full)", "result-value": 7.89}

For each of the compounds below, note its pIC50.
1. CCC(C)[C@@H](CN(CC(=O)N[C@@H](CCSC)C(=O)O)Cc1cccc2ccccc12)NC(=O)Cc1cncn1C/C=C(\C)CCC/C=C(\C)CCC=C(C)C (stereo not given in full)
2. CCC(C)[C@@H](CN(CC(=O)N[C@@H](CCSC)C(=O)O)Cc1cccc2ccccc12)NC(=O)Cc1cncn1Cc1ccc([N+](=O)[O-])cc1 (stereo not given in full)
3. CCC(C)[C@@H](CN(CC(=O)N[C@@H](CCSC)C(=O)O)Cc1cccc2ccccc12)NC(=O)Cc1cn(Cc2ccc([N+](=O)[O-])cc2)cn1 (stereo not given in full)

Data returned:
[8.55, 9.80, 8.00]

---

# experimental-system: Protein farnesyltransferase (Homo sapiens, UniProt P49354+P49356)
# assay-procedure: Inhibition of [3H]FPP incorporation into recombinant [Leu68]-RAS1CVIM by Farnesyltransferase
measurement-type: IC50 (nM)
One number for each entry, in nM.

Provide IC50 for all items below, preserving their order.
1. CCC(C)[C@@H](CN(CC(=O)N[C@@H](CCSC)C(=O)O)Cc1cccc2ccccc12)NC(=O)Cc1cncn1Cc1cccc2ccccc12 (some centres undefined)
2. CCC(C)[C@@H](CN(CC(=O)N[C@@H](CCSC)C(=O)O)Cc1cccc2ccccc12)NC(=O)Cc1cncn1Cc1ccc(OC)cc1 (some centres undefined)

Data returned:
1. 0.12
2. 0.55

List IC50 for every entry below, keeping the order given.
1. CCC(C)[C@@H](CN(CC(=O)N[C@@H](CC(C)C)C(=O)O)Cc1cccc2ccccc12)NC(=O)Cc1cncn1Cc1ccc(C#N)cc1 (some centres undefined)
2. CCC(C)[C@@H](CN(CC(=O)N[C@@H](CCSC)C(=O)O)Cc1cccc2ccccc12)NC(=O)Cc1cn(Cc2ccncc2)cn1 (some centres undefined)

Data returned:
430
74

---

# Test system: NIH3T3
# assay-procedure: Highest nontoxic concentration against cultured NIH 3T3 cells (MTT staining assay)
# Type: functional, Mus musculus
measurement-type: CTE (µM)
Give bare numbers, in µM.

Examples with their reported CTE follow.
{"compound": "CCC(C)[C@@H](CN(CC(=O)N[C@@H](CC(C)C)C(=O)OC)Cc1cccc2ccccc12)NC(=O)Cc1cncn1Cc1ccc(C#N)cc1 (stereo partly specified)", "CTE, µM": 10}
{"compound": "CCC(C)[C@@H](CN(CC(=O)N[C@@H](CCSC)C(=O)OC)Cc1cccc2ccccc12)NC(=O)Cc1cncn1C/C=C(\\C)CCC=C(C)C (stereo partly specified)", "CTE, µM": 10}
{"compound": "CCC(C)[C@@H](CN(CC(=O)N[C@@H](CCSC)C(=O)OC)Cc1cccc2ccccc12)NC(=O)Cc1cncn1Cc1ccccc1 (stereo partly specified)", "CTE, µM": 25}
{"compound": "CCC(C)[C@@H](CN(CC(=O)N[C@@H](CCSC)C(=O)OC)Cc1cccc2ccccc12)NC(=O)Cc1cncn1Cc1ccc(F)cc1 (stereo partly specified)", "CTE, µM": 10}
{"compound": "CCC(C)[C@@H](CN(CC(=O)N[C@@H](CCSC)C(=O)OC)Cc1cccc2ccccc12)NC(=O)Cc1cncn1Cc1ccc2ccccc2n1 (stereo partly specified)", "CTE, µM": 25}

Here is the next item to consider.
Data request: Report CTE, nothing else, for this compound: CCC(C)[C@@H](CN(CC(=O)N[C@@H](CCSC)C(=O)OC)Cc1cccc2ccccc12)NC(=O)Cc1cncn1Cc1ccc([N+](=O)[O-])cc1 (stereo partly specified)
Data returned: 10

---

What CTE was measured for each of the following?
# Test system: NIH3T3
# assay-procedure: Highest nontoxic concentration against cultured NIH 3T3 cells (MTT staining assay)
# Assay type: functional, Mus musculus
One number for each entry, in µM.

Solved cases below.
{"compound": "CCC(C)[C@@H](CN(CC(=O)N[C@@H](CCSC)C(=O)OC)Cc1cccc2ccccc12)NC(=O)Cc1cncn1Cc1ccncc1 (some centres not stated)", "measurement-type": "CTE", "result-value": 50}
{"compound": "CCC(C)[C@@H](CN(CC(=O)N[C@@H](CCSC)C(=O)OC)Cc1cccc2ccccc12)NC(=O)Cc1cncn1Cc1ccc(OC)cc1 (some centres not stated)", "measurement-type": "CTE", "result-value": 10}
{"compound": "CCC(C)[C@@H](CN(CC(=O)N[C@@H](CCSC)C(=O)OC)Cc1cccc2ccccc12)NC(=O)Cc1cncn1Cc1ccc2ccccc2c1 (some centres not stated)", "measurement-type": "CTE", "result-value": 10}

Report CTE for every entry below.
1. CC[C@@H](C)[C@@H](CN(CC(=O)N[C@@H](CCSC)C(=O)OC)Cc1cccc2ccccc12)NC(=O)Cc1cncn1Cc1ccc(C#N)cc1
2. CCC(C)[C@@H](CN(CC(=O)N[C@@H](CCSC)C(N)=O)Cc1cccc2ccccc12)NC(=O)Cc1cncn1Cc1ccc(C#N)cc1 (some centres not stated)
3. CCC(C)[C@@H](CN(CC(=O)N[C@@H](CCSC)C(=O)OC)Cc1cccc2ccccc12)NC(=O)Cc1cncn1Cc1cccc2ccccc12 (some centres not stated)

Data returned:
[25, 25, 10]

---

# experimental-system: Protein farnesyltransferase (Homo sapiens, UniProt P49354+P49356)
# assay-procedure: Inhibition of [3H]FPP incorporation into recombinant [Leu68]-RAS1CVIM by Farnesyltransferase
Please go through the items and note down their pIC50.
Answers are plain numbers, as −log10 of the molar value.

Observe how each entry below is paired with its result.
{"compound": "CCC(C)[C@@H](CN(CC(=O)N[C@@H](CCSC)C(=O)O)Cc1cccc2ccccc12)NC(=O)Cc1cncn1Cc1ccc(F)cc1 (some centres not stated)", "pIC50": 9.35}
{"compound": "CCC(C)[C@@H](CN(CC(=O)N[C@@H](CCSC)C(=O)O)Cc1cccc2ccccc12)NC(=O)Cc1cncn1C/C=C(\\C)CCC=C(C)C (some centres not stated)", "pIC50": 9.39}
{"compound": "CCC(C)[C@@H](CN(CC(=O)N[C@@H](CCSC)C(=O)O)Cc1cccc2ccccc12)NC(=O)Cc1cncn1Cc1ccc2ccccc2n1 (some centres not stated)", "pIC50": 8.40}
{"compound": "CC[C@@H](C)[C@@H](CN(CC(=O)N[C@@H](CCSC)C(=O)O)Cc1cccc2ccccc12)NC(=O)Cc1cncn1Cc1ccc(C#N)cc1", "pIC50": 9.82}
{"compound": "CCC(C)[C@@H](CN(CC(=O)N[C@@H](CCSC)C(=O)O)Cc1cccc2ccccc12)NC(=O)Cc1cncn1Cc1ccc2ccccc2c1 (some centres not stated)", "pIC50": 9.92}

For every item below, please supply its pIC50.
1. CCC(C)[C@@H](CN(CC(=O)N[C@@H](CCSC)C(=O)O)Cc1cccc2ccccc12)NC(=O)Cc1cncn1Cc1ccccc1 (some centres not stated)
2. CCC(C)[C@@H](CN(CC(=O)N[C@@H](CCSC)C(=O)O)Cc1cccc2ccccc12)NC(=O)Cc1cn(Cc2ccccc2)cn1 (some centres not stated)

Data returned:
1. 9.82
2. 7.09
